# Tested on: SD rats
# ASSAY_METHOD_TEXT: animal or person
# Format: in vivo
# CONDITION_NOTES: SD rats, tail vein injection

COMPOUND	SYSTEM_UNDER_TEST	Quality of recovery
CCOC(=O)C(C)OC(=O)CC[C@@H]1N=C(c2ccccn2)c2cc(Br)ccc2-n2c(C)cnc21 (some centres unmarked)	SD rats	++ (“++” means 1-3 min)
Cc1cnc2n1-c1cc(Br)c(Br)cc1C(c1ccccn1)=N[C@H]2CCC(=O)OC1(C(=O)OOC2CC(Cl)C2)CC1 (some centres unmarked)	SD rats	++ (“++” means 1-3 min)
COc1cc(C)cc2c1-n1c(C)cnc1[C@H](CCC(=O)OC1(C(=O)OC(C)C)CC1)N=C2c1ccccn1	SD rats	++ (“++” means 1-3 min)
COC(=O)C1(OC(=O)CC[C@@H]2N=C(c3ccccn3)c3cc(Cl)c(Br)cc3-n3c(C)cnc32)CC1	SD rats	++ (“++” means 1-3 min)
COC(=O)C1(OC(=O)CC[C@@H]2N=C(c3ccccn3)c3cc(Cl)c(C(F)(F)F)cc3-n3c(C)cnc32)CC1 [Example 40]	SD rats	++ (“++” means 1-3 min)
CCc1c(Br)cc2c(c1Cl)-n1c(C)cnc1[C@H](CCC(=O)OC(C)(CC)SC(=O)OC)N=C2c1ccccn1 (some centres unmarked)	SD rats	++ (“++” means 1-3 min)
CCOC(=O)C1(OC(=O)CC[C@@H]2N=C(c3ccccn3)c3cc(Br)ccc3-n3c(C)cnc32)CC1	SD rats	++ (“++” means 1-3 min)
COC(=O)OC(C)OC(=O)CC[C@@H]1N=C(c2ccccn2)c2cc(Br)ccc2-n2c(C)cnc21 (some centres unmarked)	SD rats	++ (“++” means 1-3 min)
